STUDY SYSTEM: T1, human CD40 expressed on the cell surface (human, UniProt P25942 21-277)
T1 construct: whole, on cells; Used for transfected CHO-K cells, for transfected Jurkat reporter cells (Met1-Gln277) and for the natural CD40 on Ramos cells and iDC; also called CHO-K-huCD40 cells; CHO cells expressing CD40
T1 sequence (P25942 21-277): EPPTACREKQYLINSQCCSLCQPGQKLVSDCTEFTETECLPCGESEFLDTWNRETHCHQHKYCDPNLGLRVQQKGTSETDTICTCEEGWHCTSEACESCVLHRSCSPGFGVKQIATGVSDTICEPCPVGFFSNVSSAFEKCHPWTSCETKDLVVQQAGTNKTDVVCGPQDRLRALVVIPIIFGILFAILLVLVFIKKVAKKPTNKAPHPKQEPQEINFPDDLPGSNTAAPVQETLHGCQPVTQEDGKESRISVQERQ
ASSAY REMARKS: flow cytometry on CHO-K-huCD40 cells, APC anti-human IgG secondary antibody
ATTRIBUTE MEASURED: EC50 (read off the curve)

BINDER	RECORDED VALUE
C8-11 antibody (antibody, V domains shown) VH: EVQLLESGGGLVRPGGSLRLSCAASGFTPGSYEMNWVRQAPGKGLEWVSYISSAGETTDYADSVKGRFTVSRDNSKNLLYLQMNSLRAEDTAVYYCARDVFFFDSSGDNGAYGMDVWGQGTMVTVSS VL: DIQLTQSPSSLTASVGDRVTITCRSSQGIRSSLAWYQQKPGKPPKLLIYGASSLLGGVPSRFSGSGSGTDFTLTISSLQPEDFATYYCQQLNSFPSTFGQGTKLEIK	~2 µg/mL
APX005M (antibody, V domains shown) VH: QVQLVESGGGVVQPGRSLRLSCAASGFSFSSTYVCWVRQAPGKGLEWIACIYTGDGTNYSASWAKGRFTISKDSSKNTVYLQMNSLRAEDTAVYFCARPDITYGFAINFWGPGTLVTVSS VL: DIQMTQSPSSLSASVGDRVTIKCQASQSISSRLAWYQQKPGKPPKLLIYRASTLASGVPSRFSGSGSGTDFTLTISSLQPEDVATYYCQCTGYGISWPIGGGTKVEIK	~0.8 µg/mL
C8-8 antibody (antibody, V domains shown) VH: EVQLLESGGGLVRPGGSLRLSCAASGFTFGSYEMNWVRQAPGKGLEWVSYISSSGETTDYADSVKGRFTVSRDNSKNLLYLQMNSLRAEDTAVYYCARDVFFFDSSGPPGAYGMDVWGQGTMVTVSS VL: DIQLTQSPSSLTASVGDRVTITCRSSQGIRSSLAWYQQKPGKPPKLLIYGASSLEGGVPSRFSGSGSGTDFTLTISSLQPEDFATYYCQQLNSFPSTFGQGTKLEIK	~0.7 µg/mL
C8-7 antibody (antibody, V domains shown) VH: EVQLLESGGGLVRPGGSLRLSCAASGFTFGSYEMNWVRQAPGKGLEWVSYISSSGETTDYADSVKGRFTVSRDNSKNLLYLQMNSLRAEDTAVYYCARDVFFFDSSGDNHAYGMDVWGQGTMVTVSS VL: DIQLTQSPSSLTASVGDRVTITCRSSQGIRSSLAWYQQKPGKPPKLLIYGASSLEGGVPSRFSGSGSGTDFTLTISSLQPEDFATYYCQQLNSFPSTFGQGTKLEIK	~0.9 µg/mL
C8-10 antibody (antibody, V domains shown) VH: EVQLLESGGGLVRPGGSLRLSCAASGFTFGSYEMNWVRQAPGKGLEWVSYISSSGETTDYADSVKGRFTVSRDNSKNLLYLQMNSLRAEDTAVYYCARDVFFFDSSGFPGAYGMDVWGQGTMVTVSS VL: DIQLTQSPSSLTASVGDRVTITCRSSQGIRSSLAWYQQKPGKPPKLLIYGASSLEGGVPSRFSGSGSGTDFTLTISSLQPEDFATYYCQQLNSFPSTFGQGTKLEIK	~0.9 µg/mL

Inquiry: Could you tell me which EC50 (read off the curve) is on file for C8 clone anti-CD40 full-length antibody (antibody, human IgG1, kappa, V domains shown, also called C8-WT; C8 parent antibody) VH: EVQLLESGGGLVRPGGSLRLSCAASGFTFGSYEMNWVRQAPGKGLEWVSYISSSGETTDYADSVKGRFTVSRDNSKNLLYLQMNSLRAEDTAVYYCARDVFFFDSSGDNGAYGMDVWGQGTMVTVSS VL: DIQLTQSPSSLTASVGDRVTITCRSSQGIRSSLAWYQQKPGKPPKLLIYGASSLEGGVPSRFSGSGSGTDFTLTISSLQPEDFATYYCQQLNSFPSTFGQGTKLEIKR ?
Reply text: ~0.9 µg/mL
